This collection of values is drawn from paper PMC8016788.

Experiment: clinical
Conditions: human, plasma, oral, 10 mg
measured.property: Vd/F (L)
Numbers only, in L.

query: Can you look up the measured Vd/F of CCOc1ccc(Cc2cc([C@@H]3O[C@H](CO)[C@@H](O)[C@H](O)[C@H]3O)ccc2Cl)cc1 [dapagliflozin] for me?
result: 44.9

---

Test: clinical
Conditions: human, plasma, oral, 10 mg
measured.property: AUC(0-inf) (ng·h/mL)
Give bare numbers, in ng·h/mL.

query: Quick check: AUC(0-inf) of `CCOc1ccc(Cc2cc([C@@H]3O[C@H](CO)[C@@H](O)[C@H](O)[C@H]3O)ccc2Cl)cc1` ?
result: 741
